Every entry's value here was drawn from ChEMBL document CHEMBL3507680.

Catalogue of cytotoxicity at 70.5 h values
assay: Human HepG2 cell viability assay in 384 well format; format: toxicity, cell-based; set-up: dose 125 nL, time 70.5 hour; concentration not given beside the values; details: HepG2 cells, read-out: Inhibition
measured_metric: cytotoxicity at 70.5 h (%)

[[record]]
compound = "O=C(Cc1cccnc1)N1CCC(c2nnc(-c3ccccn3)o2)CC1"
measured_metric = "cytotoxicity at 70.5 h"
assay_result = 25.5

[[record]]
compound = "CC(C)C1SCC(=O)Nc2c1cnn2-c1ccc(F)cc1 (stereo not given)"
measured_metric = "cytotoxicity at 70.5 h"
assay_result = -1.99

[[record]]
compound = "Cn1c(NCC(O)c2ccc(Cl)cc2)c(C#N)c(=O)n(C)c1=O (stereo not given)"
measured_metric = "cytotoxicity at 70.5 h"
assay_result = -4.06

[[record]]
compound = "FC(F)(F)C1CCCn2c(CNCc3ccsc3)nnc21 (stereo not given)"
measured_metric = "cytotoxicity at 70.5 h"
assay_result = -9.55

[[record]]
compound = "C=C(C)COc1cccc(CNC(COC)c2ccnn2C)c1 (stereo not given)"
measured_metric = "cytotoxicity at 70.5 h"
assay_result = 2.53


* * *

assay: Human HepG2 cell viability assay in 384 well format; assay type: toxicity, cell-based; parameters: dose 125 nL, time 70.5 hour; concentration not given beside the values; details: HepG2 cells, read-out: Inhibition
Catalogue of cytotoxicity at 70.5 h values
measured_metric: cytotoxicity at 70.5 h (%)

[[record]]
compound = "Cn1cc(CN2CC[C@H]3C[C@H](c4nc(C5CC5)cs4)O[C@@H]3C2)cn1"
readout_unit = "%"
assay_result = -12.5

[[record]]
compound = "Cc1nc(N2CCN(C(=O)c3ccccc3)CC2)c2cnn(C)c2n1"
readout_unit = "%"
assay_result = -0.834

[[record]]
compound = "Cc1ccc(CC(=O)Nc2cc(C(C)C)n[nH]2)cn1"
readout_unit = "%"
assay_result = 24.6

[[record]]
compound = "Cc1ccc(CN2CC[C@@H]3OCCN(S(C)(=O)=O)[C@H]3CC2)s1"
readout_unit = "%"
assay_result = -3.31

[[record]]
compound = "CCCC1CN(CC(C)C)C(=O)c2cccnc2O1 (stereo unspecified)"
readout_unit = "%"
assay_result = 44

[[record]]
compound = "CCNC(=O)c1sccc1N(C)S(=O)(=O)c1ccc(Cl)cc1"
readout_unit = "%"
assay_result = 1.21

[[record]]
compound = "CC(C)c1nc(C(=O)N2C[C@H]3CC[C@@H]2CN(C2CCOCC2)C3)cs1"
readout_unit = "%"
assay_result = -7.88

[[record]]
compound = "CS(=O)(=O)N[C@@H]1CN(C(=O)c2ccccn2)C[C@@H]2CCCO[C@@H]21"
readout_unit = "%"
assay_result = -9.33

[[record]]
compound = "Cc1cc(NCCS(C)(=O)=O)n2nc(C)cc2n1"
readout_unit = "%"
assay_result = 4.45

[[record]]
compound = "Nc1nc(N)c2c(n1)OC1(CCCN(Cc3nccs3)CC1)C2 (stereo unspecified)"
readout_unit = "%"
assay_result = -9.72

[[record]]
compound = "Cc1ccc2c(c1)C(NC(=O)C1CCN(S(C)(=O)=O)CC1)CC(C)(C)O2 (stereo unspecified)"
readout_unit = "%"
assay_result = -2.93


* * *

assay: Human HepG2 cell viability assay in 384 well format; type: toxicity, cell-based; design: dose 125 nL, time 70.5 hour; concentration not given beside the values; details: HepG2 cells, read-out: Inhibition
Catalogue of cytotoxicity at 70.5 h values
measured_metric: cytotoxicity at 70.5 h (%)

[[record]]
molecule = "Cn1ccc2c(C(=O)NCCCN3CCCC3)cccc21"
readout_unit = "%"
assay_result = -3.04

[[record]]
molecule = "CN(CCOc1ccccc1F)C1CCOC1=O (stereo unspecified)"
readout_unit = "%"
assay_result = -1.46

[[record]]
molecule = "CCc1nc2n(n1)CCCC2NC(=O)Nc1ccc(F)cc1C#N (stereo unspecified)"
readout_unit = "%"
assay_result = 1.79

[[record]]
molecule = "COc1cccc(CN2CCCCCC2c2cccs2)c1OC (stereo unspecified)"
readout_unit = "%"
assay_result = -10.1

[[record]]
molecule = "Cc1cc(F)ccc1-c1ccccc1CC1CNCCNC1=O (stereo unspecified)"
readout_unit = "%"
assay_result = 5.41

[[record]]
molecule = "CC(C)NC(=O)CCNC(=O)c1c(Br)c2ccccc2n1C"
readout_unit = "%"
assay_result = -0.338


* * *

experiment: Human HepG2 cell viability assay in 384 well format; assay type: toxicity, cell-based; parameters: dose 125 nL, time 70.5 hour; concentration not given beside the values; conditions: HepG2 cells, read-out: Inhibition
measured_metric: cytotoxicity at 70.5 h (%)

[[record]]
compound = "C[C@@H]1CN(C2(C(=O)N3CC[C@H](O)C3)Cc3ccccc3C2)C[C@H](C)O1"
assay_result = -11.9

[[record]]
compound = "O=C(C1COc2ccccc2C1)N(CCO)Cc1ccccc1 (configuration not stated)"
assay_result = -1.94

[[record]]
compound = "CC1CCC(NC(=O)c2nn(C)cc2Br)CC1 (configuration not stated)"
assay_result = -7.64

[[record]]
compound = "CC(C)C(=O)N1CCCC1C(=O)Nc1cc(C(F)(F)F)ccc1F (configuration not stated)"
assay_result = -17.3

[[record]]
compound = "Cn1ccc2c(C(=O)N3CCCC(c4nnc[nH]4)C3)cccc21 (configuration not stated)"
assay_result = 4.32

[[record]]
compound = "CC(=O)N1CCC(c2cncc(N3CCCCCC3)n2)CC1"
assay_result = -17.2

[[record]]
compound = "CCOC(=O)[C@H]1[C@@H](O)C(=O)N(C)C12CCN(C(=O)OCC)CC2"
assay_result = 0.864

[[record]]
compound = "Cc1cc(C)c2nc(C)c(C(=O)N3CCC(CCN(C)C)CC3)cc2c1"
assay_result = -1.81

[[record]]
compound = "Cc1cc(C2CCCN(C(=O)CN3CCN(C)CC3)C2)n[nH]1 (configuration not stated)"
assay_result = -11.8

[[record]]
compound = "COc1ccccc1CN1CCC(Cc2cnc(CN(C)C)cn2)CC1"
assay_result = -2.82

[[record]]
compound = "O=C(COc1ccc(Cl)cc1)NCc1nncn1C1CC1"
assay_result = -14.1

[[record]]
compound = "c1cnc(NCc2noc3c2CN(CCN2CCCC2)CC3)nc1"
assay_result = -7.61

[[record]]
compound = "O=C(CN1C(=O)c2ccccc2CS1(=O)=O)c1ccccc1"
assay_result = -6.1

[[record]]
compound = "Cc1cc(CNC(=O)Nc2cc(F)cc(N3CCCC3)c2)no1"
assay_result = -13.7

[[record]]
compound = "O=C(NCc1ccco1)[C@H]1C[C@@H]2CCN(c3cccc(F)c3)C[C@H]2O1"
assay_result = -5.03

[[record]]
compound = "Cc1nc(-c2noc3ccc(C(=O)NCCN4CCOCC4)cc23)co1"
assay_result = 12.2

[[record]]
compound = "CCc1[nH]c2c(CNC(=O)C3CCS(=O)(=O)CC3)cc(C)cc2c1C"
assay_result = -7


* * *

assay: Human HepG2 cell viability assay in 384 well format; type: toxicity, cell-based; set-up: dose 125 nL, time 70.5 hour; concentration not given beside the values; details: HepG2 cells, read-out: Inhibition
measured_metric: cytotoxicity at 70.5 h (%)

[[record]]
molecule = "CNC(=O)[C@H]1C[C@@H]2CN(Cc3c(C)noc3C)C[C@@H]2N1C(C)=O"
assay_result = -3.36

[[record]]
molecule = "O=C(CN1CCOc2ccccc2C1)N1Cc2cnn(CCO)c2C1"
assay_result = -0.755

[[record]]
molecule = "COc1cccc2c1OCC(C(=O)N1CCN(S(C)(=O)=O)CC1)C2 (centres undefined)"
assay_result = 20.3

[[record]]
molecule = "C=C(C)CN1CCN(Cc2nccn2C)C(C)C1 (centres undefined)"
assay_result = 30.2


* * *

assay: Human HepG2 cell viability assay in 384 well format; type: toxicity, cell-based; design: dose 125 nL, time 70.5 hour; concentration not given beside the values; details: HepG2 cells, read-out: Inhibition
Catalogue of cytotoxicity at 70.5 h values
measured_metric: cytotoxicity at 70.5 h (%)

[[record]]
compound = "CC(C)CC(=O)N1CCC2(CC1)OC(C(N)=O)Cn1ccnc12 (stereo not given)"
readout_unit = "%"
assay_result = -8.87

[[record]]
compound = "CC(C)c1noc(CN(C)C(=O)c2ccccc2-c2nc[nH]n2)n1"
readout_unit = "%"
assay_result = 6.97

[[record]]
compound = "CN(C)C(=O)c1nnn(-c2ccc(Br)cc2)n1"
readout_unit = "%"
assay_result = 28.4

[[record]]
compound = "O=C(c1cnccn1)N1C[C@@H]2C[C@@H](c3nc(C4CC4)cs3)O[C@@H]2C1"
readout_unit = "%"
assay_result = -1.34

[[record]]
compound = "Cc1cccc(N(CCC(N)=O)C(=O)c2cc(-n3cccn3)ccn2)c1"
readout_unit = "%"
assay_result = -12


* * *

test: Human HepG2 cell viability assay in 384 well format; format: toxicity, cell-based; design: dose 125 nL, time 70.5 hour; concentration not given beside the values; conditions: HepG2 cells, read-out: Inhibition
Catalogue of cytotoxicity at 70.5 h values
measured_metric: cytotoxicity at 70.5 h (%)

[[record]]
compound = "CC(C)(C)c1ncc(C(=O)NCCSc2ccccn2)c(O)n1"
assay_result = 30.9

[[record]]
compound = "CN(CC(=O)N1CCCC1c1noc(C2CC2)n1)C1CC1 (stereo not given)"
assay_result = -8.76

[[record]]
compound = "CC(C)(C)c1cc(=O)n2c(n1)SCC(C(=O)NCc1ccco1)C2 (stereo not given)"
assay_result = 29.2

[[record]]
compound = "CC(C)=CCN1CCN(Cc2cccc(C)n2)CC1CCO (stereo not given)"
assay_result = 6.26

[[record]]
compound = "CCN(CC1CCOC1)C(=O)Nc1ccc(OCC(F)(F)F)nc1 (stereo not given)"
assay_result = -2.33

[[record]]
compound = "c1csc(-c2noc(CCCN3CCCC3Cn3cncn3)n2)c1 (stereo not given)"
assay_result = 2.46

[[record]]
compound = "CC(=O)N1CCCC(c2nc(N(C)C)ncc2-c2cccc(F)c2)C1 (stereo not given)"
assay_result = 3.21

[[record]]
compound = "COc1ccc(-c2cn3c(n2)CO[C@@H](CNCc2ccccn2)C3)cc1"
assay_result = -0.00582

[[record]]
compound = "CC(C)c1noc(CN2CCN(C(=O)OC(C)(C)C)C(C)C2)n1 (stereo not given)"
assay_result = 7.76

[[record]]
compound = "Cc1nc(CN2C[C@@H]3CN(C(=O)[C@H]4CCCO4)C[C@@H]3C2=O)cs1"
assay_result = -8.74

[[record]]
compound = "Cc1c(C(=O)N2CCN(c3ccccn3)CC2)n(C)c2ccc(Cl)cc12"
assay_result = -13.6

[[record]]
compound = "Cn1ccc(CN2CCC(NC(=O)C3CCCCC3)CC2)cc1=O"
assay_result = -3.14

[[record]]
compound = "Cc1ccc(C)c(CN(CC(N)=O)C(C)C)c1"
assay_result = -1.28

[[record]]
compound = "CN(C)CCNC(=O)c1ccccc1NC(=O)c1cc(Cl)ccc1Cl"
assay_result = 26.4

[[record]]
compound = "CC(NC(=O)CCCC(=O)c1cccs1)c1nnc2n1CCC2 (stereo not given)"
assay_result = -9.34

